# target-under-test: renin (Homo sapiens)
# Sequence (P00797 67-406, species assumed): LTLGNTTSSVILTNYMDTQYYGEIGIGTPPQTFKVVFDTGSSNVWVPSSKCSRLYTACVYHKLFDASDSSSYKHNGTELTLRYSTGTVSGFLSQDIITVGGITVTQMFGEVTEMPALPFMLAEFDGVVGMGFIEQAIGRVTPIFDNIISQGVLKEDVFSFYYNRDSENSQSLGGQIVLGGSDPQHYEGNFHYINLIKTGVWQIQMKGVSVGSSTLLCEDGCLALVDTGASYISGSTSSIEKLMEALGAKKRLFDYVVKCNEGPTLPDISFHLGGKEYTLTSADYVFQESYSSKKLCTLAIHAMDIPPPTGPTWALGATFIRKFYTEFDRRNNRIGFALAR
# assay-info: in vitro renin inhibitory activity, radioimmunoassay for angiotensin I
# Assay type: biochemical
# condition-notes: 10^-6 molar test compound; renin incubated 2 hours at 37° with substrate angiotensinogen; angiotensin I by radioimmunoassay
property-measured: Activity % Inhibition @ 10^-6 M (%)
Numeric only. Scale: %

For this substance ( DNMA-NHCH(OC2 H5)CO-STA-NHCH2 CH(CH3)CH2 CH3 [DNMANHCH(OC2 H5)COSTANHCH2 CH(CH3)CH2 CH3 (slow isomer)] ), measured Activity % Inhibition @ 10^-6 M is 15

For this substance ( DNMA-NHCH(NHC2 H5)CO-STA-NHCH2 CH(CH3) CH2 CH3 [DNMANHCH(NHC2 H5)COSTANHCH2 CH(CH3)CH2 CH3 (slow isomer)] ), measured Activity % Inhibition @ 10^-6 M is 71

For this substance ( DNMA-NHCH(NH2)CO-STA-NHCH2 CH(CH3)CH2 CH3 [DNMANHCH(NH2)COSTANHCH2 CH(CH3)CH2 CH3 (slow isomer)] ), measured Activity % Inhibition @ 10^-6 M is 54

For this substance ( DNMA-NHCH(NH(CH2)3 NHCSNHCH3)CO-STA-NHCH2 CH(CH3)CH2 CH3 ), measured Activity % Inhibition @ 10^-6 M is 36

For this substance ( DNMA-NHCH(NHCH(CH3)2)CO-STA-NHCH2 CH(CH3)CH2 CH3 [DNMA-NHCH(NHCH(CH3)2)COSTANHCH2 CH(CH3)CH2 CH3 (slow isomer)] ), measured Activity % Inhibition @ 10^-6 M is 60
